pKi: −log10 of the molar value.
The compounds below each have a reported pKi tested on Melatonin receptor type 1A (Homo sapiens); the values come from various publications.
Entry flag: Satisfied if pKi reaches 7; Not satisfied if it does not.

{"columns": ["Compound", "Assigned class"],
 "data": [
  ["CCCC(=O)Nc1cccc(Oc2cccc(OC)c2)c1", "Not satisfied"],
  ["COc1cccc(SC[C@H](C)NC(C)=O)c1", "Not satisfied"],
  ["CC(=O)NC[C@@H]1C[C@H]1c1cccc2nc(CCCCc3ccccc3)oc12", "Satisfied"],
  ["CCNC(=O)NCCCc1cccc2nc(-c3ccccc3)oc12", "Not satisfied"],
  ["CCC(=O)NCCCc1cc(OC)ccc1Cc1cccc(OC)c1", "Satisfied"],
  ["CCCc1nc2cccc([C@@H]3C[C@H]3CNC(=O)NCC)c2o1", "Satisfied"],
  ["CCCNC(=O)N[C@@H]1CCN(c2cccc3c2CCO3)C1", "Satisfied"],
  ["CC(=O)NCCC(c1ccccc1)c1ccccc1", "Not satisfied"],
  ["CCNC(=S)NCCc1cccc2ncc(OC)cc12", "Not satisfied"],
  ["COc1ccc2c3c(n(CCNC(C)=O)c2n1)CCCC3", "Satisfied"],
  ["CCNC(=O)Nc1ccc(Oc2cccc(OC)c2)cc1", "Not satisfied"],
  ["CC(=O)NCCC1=C(c2ccoc2)Cc2ccc3c(c21)CCO3", "Satisfied"],
  ["CCC(=O)NCC1CCc2cc(OC)ccc2N1Cc1ccccc1 (racemic)", "Not satisfied"],
  ["CCC(=O)NCCc1c(Sc2ccc(F)cc2)sc2ccc(F)cc12", "Not satisfied"],
  ["CC(=O)NCC(C)Oc1ccccc1 (stereo not given)", "Not satisfied"],
  ["COc1cccc(OCCNC(C)=O)c1", "Satisfied"],
  ["CC(=O)NCCc1cccc2ccc(OCCCCOc3ccc4scc(CCNC(C)=O)c4c3)cc12", "Satisfied"],
  ["COc1ccc(OCc2ccccn2)c(CCCNC(C)=O)c1", "Not satisfied"],
  ["CCNC(=O)NCC1CCc2c(OC)cccc2N1C (racemic)", "Satisfied"],
  ["CCCC(=O)NC[C@@H]1C[C@H]1c1cccc2nc(CC)oc12", "Satisfied"]
]}

----------
The compounds below each have a reported Ki tested on Melatonin receptor type 1A (Homo sapiens); the values come from various publications.

{"columns": ["Compound", "Target or test system", "Unit descriptor", "Value qualifier", "Ki"],
 "data": [
  ["CCC(=O)NCCc1cccc(Cc2ccccc2)c1", "Melatonin receptor type 1A (Homo sapiens)", "nM", "=", 389],
  ["COc1cccc(N(CCCCCCN(CCNC(C)=O)c2cccc(OC)c2)CCNC(C)=O)c1", "Melatonin receptor type 1A (Homo sapiens)", "nM", "=", 741],
  ["COc1cccc(COc2ccc(CCCNC(C)=O)cc2OC)c1", "Melatonin receptor type 1A (Homo sapiens)", "nM", "=", 1460],
  ["COC(=O)NCCc1cccc2ccc(OC)nc12", "Melatonin receptor type 1A (Homo sapiens)", "nM", "=", 7],
  ["COc1ccc2[nH]c(C(=O)OCCCCCCCCCOC(=O)c3ccccc3)c(CCNC(C)=O)c2c1", "Melatonin receptor type 1A (Homo sapiens)", "nM", "=", 83],
  ["CC(=O)NCCN(C)c1cccc(OCCCCCCCCOc2cccc(N(C)CCNC(C)=O)c2)c1", "Melatonin receptor type 1A (Homo sapiens)", "nM", "=", 20],
  ["COc1ccc2[nH]c(CCNC(C)=O)cc2c1", "Melatonin receptor type 1A (Homo sapiens)", "nM", "=", 16200],
  ["CCCC(=O)NCC1Cc2cccc3ccc(OC)c1c23 (single isomer, unassigned; (-))", "Melatonin receptor type 1A (Homo sapiens)", "nM", "=", 0.03],
  ["COc1ccc2c(CN(C)C)cn(CCNC(C)=O)c2n1", "Melatonin receptor type 1A (Homo sapiens)", "nM", ">", 10000],
  ["CCC(=O)NCCc1c(OC(=O)CCl)ccc2ccc(OC)cc12", "Melatonin receptor type 1A (Homo sapiens)", "nM", "=", 11],
  ["CCCC(=O)Nc1ccc(N(C)c2cccc3c2CCO3)cc1", "Melatonin receptor type 1A (Homo sapiens)", "nM", "=", 36],
  ["COc1cccc(N(C)c2ccc(NC(=O)C3CC3)cc2)c1", "Melatonin receptor type 1A (Homo sapiens)", "nM", "=", 12]
]}

----------
pKi: −log10 of the molar value.
The molecules below each have a reported pKi tested on Melatonin receptor type 1A (Homo sapiens, UniProt P48039); the values come from various publications.
Sequence (P48039 whole entry): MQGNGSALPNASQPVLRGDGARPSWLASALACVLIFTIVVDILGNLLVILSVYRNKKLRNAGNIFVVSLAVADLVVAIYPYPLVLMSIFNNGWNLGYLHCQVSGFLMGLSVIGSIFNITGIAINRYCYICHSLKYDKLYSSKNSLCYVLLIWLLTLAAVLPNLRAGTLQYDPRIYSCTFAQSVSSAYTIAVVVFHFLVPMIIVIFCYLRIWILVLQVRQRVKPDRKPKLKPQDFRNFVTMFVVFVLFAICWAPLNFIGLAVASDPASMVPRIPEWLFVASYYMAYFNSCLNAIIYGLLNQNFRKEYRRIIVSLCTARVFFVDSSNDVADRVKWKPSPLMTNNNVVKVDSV
Entry flag: MET if pKi reaches 9; NOT MET if it does not.

{"columns": ["Molecule", "Assigned class"],
 "data": [
  ["COc1ccc2oc(-c3ccc(F)cc3)c(CCNC(C)=O)c2n1", "MET"],
  ["CNC(=O)N[C@@H]1CCN(c2cccc3c2CCO3)C1", "NOT MET"],
  ["CC(=O)NCCSc1ccccc1", "NOT MET"],
  ["CC(C)=CCOc1ccc2ccc(=O)oc2c1", "NOT MET"],
  ["CCC(=O)N[C@H]1CCN(c2cccc3oc(CCCCc4ccccc4)cc23)C1", "NOT MET"],
  ["CC(=O)NCC1CNc2ccccc2C1 (racemic)", "NOT MET"],
  ["COc1ccccc1OCCNC(C)=O", "NOT MET"],
  ["CCn1c(Cc2c[nH]c3ccc(OC)cc23)n[nH]c1=S", "NOT MET"],
  ["O=C(NCCCc1cccc2oc(CCCCc3ccccc3)cc12)C1CC1", "NOT MET"],
  ["CC(C)C(=O)NCCCc1cccc2c1C[C@@H](CCCCc1ccccc1)O2", "NOT MET"],
  ["COc1ccc2oc(Cc3cc(C(F)(F)F)cc(C(F)(F)F)c3)c(CCNC(C)=O)c2c1", "NOT MET"],
  ["CC(C)C(=O)NC[C@@H]1C[C@H]1c1cccc2c1C[C@@H](CCCCc1ccccc1)O2", "NOT MET"],
  ["COc1ccc2[nH]cc(CCc3n[nH]c(=S)o3)c2c1", "NOT MET"],
  ["CNC(=O)CCc1cccc2ccc(OC)nc12", "NOT MET"],
  ["CC(=O)NCCC1=C(c2ccccc2OC(C)C)Cc2ccc3c(c21)CCO3", "NOT MET"],
  ["COc1ccc2c(CN3CCCCC3)cn(CCNC(C)=O)c2n1", "NOT MET"],
  ["COc1cccc(C(CNC(C)=O)Cc2ccccc2)c1 (centres undefined)", "NOT MET"],
  ["CCC(=O)NCc1cc2c(OC)cccc2n1Cc1c(C)cccc1C", "NOT MET"],
  ["COc1ccc2[nH]cc(CCNC(C)=O)c2c1[N+](=O)[O-]", "NOT MET"],
  ["CCCC(=O)NC[C@H](C)Sc1cccc(OC)c1", "NOT MET"],
  ["CCOc1ccc2ccc(OC)cc2c1CCNC(=O)CC", "MET"],
  ["CCN1CC(CNC(C)=O)Cc2ccccc21 (racemic)", "NOT MET"],
  ["CC(=O)NCCN(C)c1cccc(OCCCCN)c1", "NOT MET"],
  ["COc1ccc2[nH]c(I)c(CCNC(C)=O)c2c1[N+](=O)[O-]", "NOT MET"],
  ["COc1cccc(SCC(C)NC(C)=O)c1 (centres undefined)", "NOT MET"],
  ["COc1cnc2cccc(CCNC(N)=O)c2c1", "NOT MET"],
  ["COc1ccc2oc(-c3ccc4ccccc4c3)c(CCNC(C)=O)c2n1", "NOT MET"],
  ["COc1ccc2ccc(OC)c3c2c1CCC3CNC(C)=O (centres undefined)", "MET"],
  ["CCCC(=O)Nc1ccc(Sc2cccc(OC)c2)cc1", "NOT MET"],
  ["COc1ccc2cc(CCNC(C)=O)n(C)c2c1", "NOT MET"],
  ["CCC(=O)NCc1cc2c(OC)cccc2[nH]1", "NOT MET"],
  ["CCC(=O)NCC1CCc2c(cccc2OC)N1 (racemic)", "NOT MET"],
  ["CCCC(=O)NCC1CCc2cccc3ccc(OC)c1c23 (centres undefined)", "MET"],
  ["CCC(=O)NC[C@@H]1C[C@H]1c1cccc2nc(C(C)C)oc12", "NOT MET"],
  ["COc1ccc2[nH]cc(CCc3nnco3)c2c1", "NOT MET"],
  ["CCCC(=O)NCC1CCc2c(OC)ccc3cccc1c23 (stereo in doubt; 13c)", "MET"],
  ["CCCc1nc2cccc(CCCNC(=O)C(C)C)c2o1", "NOT MET"],
  ["CCCC(=O)N[C@H]1CCN(c2cccc3c2CCO3)C1", "MET"],
  ["COc1ccc2cccc(CCNC(C)=O)c2n1", "MET"],
  ["COc1cccc(Cc2oc3ccccc3c2CCNC(C)=O)c1", "NOT MET"],
  ["COc1ccc2cnnc(CCNC(=O)C3CC3)c2c1", "NOT MET"],
  ["CCC(=O)Nc1ccc(Oc2cccc(OC)c2)cc1", "NOT MET"]
]}
